Sourced from patent US9963445B2

test system: Setaria faberi; assay: Post-emergence herbicidal activity, glasshouse pot test; type: in vivo; set-up: key: 0 = no damage to plant, 5 = total damage to plant; details: Application post-emergence, rate 1000 g/ha, evaluated after 13 days
measurement kind: SETFA herbicidal damage score

compound="CC1=C(Cl)C(=O)N(c2cc(C)c(-c3ccsc3)cn2)C1O (stereo not drawn)" assay_target="Setaria faberi" measurement_kind="SETFA herbicidal damage score" test_result=5
compound="CC(C)C1=C(Cl)C(=O)N(c2cc(C(F)(F)F)ccn2)C1O (stereo not drawn)" assay_target="Setaria faberi" measurement_kind="SETFA herbicidal damage score" test_result=0
compound="CCOC(=O)C(C)(C)c1cc(N2C(=O)C(Cl)=C(C)C2O)ncn1 (stereo not drawn)" assay_target="Setaria faberi" measurement_kind="SETFA herbicidal damage score" test_result=5
compound="COc1ccnc(N2C(=O)C(Cl)=C(C)C2O)c1 (stereo not drawn)" assay_target="Setaria faberi" measurement_kind="SETFA herbicidal damage score" test_result=1
compound="COC1=C(C)C(O)N(c2cc(C)c(-c3cnn(C)c3)nn2)C1=O (stereo not drawn)" assay_target="Setaria faberi" measurement_kind="SETFA herbicidal damage score" test_result=2
compound="CC1=C(Cl)C(=O)N(c2cc(C(F)(F)F)c(Cl)cn2)C1O (stereo not drawn)" assay_target="Setaria faberi" measurement_kind="SETFA herbicidal damage score" test_result=5
compound="COC1=C(C)C(O)N(c2cc(C(C)(F)F)c(-c3cccnc3)nn2)C1=O (stereo not drawn)" assay_target="Setaria faberi" measurement_kind="SETFA herbicidal damage score" test_result=4
compound="COC1=C(C)C(O)N(c2cc(C(C)(C)F)c(C#N)nn2)C1=O (stereo not drawn)" assay_target="Setaria faberi" measurement_kind="SETFA herbicidal damage score" test_result=5
compound="COC1=C(C)C(O)N(c2ccc(NC(=O)C(C)(C)C)cn2)C1=O (stereo not drawn)" assay_target="Setaria faberi" measurement_kind="SETFA herbicidal damage score" test_result=5
compound="CC1=C(Cl)C(=O)N(c2ccc([S+](C)[O-])cn2)C1O (stereo not drawn)" assay_target="Setaria faberi" measurement_kind="SETFA herbicidal damage score" test_result=3
compound="CCCC1=C(Cl)C(=O)N(c2cc(C(C)(C)C#N)ncn2)C1O (stereo not drawn)" assay_target="Setaria faberi" measurement_kind="SETFA herbicidal damage score" test_result=5
compound="CCC1=C(Cl)C(=O)N(c2cc(C(F)(F)F)ccn2)C1O (stereo not drawn)" assay_target="Setaria faberi" measurement_kind="SETFA herbicidal damage score" test_result=5
compound="COC1=C(C)C(O)N(c2cc(C(C)(C)C)c(N3CC(F)(F)C3)nn2)C1=O (stereo not drawn)" assay_target="Setaria faberi" measurement_kind="SETFA herbicidal damage score" test_result=5
compound="COC1=C(C)C(O)N(c2cc(C(C)F)c(Cl)nn2)C1=O (stereo not drawn)" assay_target="Setaria faberi" measurement_kind="SETFA herbicidal damage score" test_result=5
compound="COC1=C(C)C(O)N(c2cc(C(F)(F)F)c(Br)cn2)C1=O (stereo not drawn)" assay_target="Setaria faberi" measurement_kind="SETFA herbicidal damage score" test_result=5
compound="COC1=C(C)C(O)N(c2cc(C)c(C(=O)NC(C)(C)C)cn2)C1=O (stereo not drawn)" assay_target="Setaria faberi" measurement_kind="SETFA herbicidal damage score" test_result=5
compound="COC1=C(C)C(O)N(c2ccc(N)cn2)C1=O (stereo not drawn)" assay_target="Setaria faberi" measurement_kind="SETFA herbicidal damage score" test_result=1
compound="CC1=C(Cl)C(=O)N(c2cc(C)ccn2)C1O (stereo not drawn)" assay_target="Setaria faberi" measurement_kind="SETFA herbicidal damage score" test_result=5
compound="CCOC(=O)c1cnc(N2C(=O)C(OC)=C(C)C2O)nc1C(F)(F)F (stereo not drawn)" assay_target="Setaria faberi" measurement_kind="SETFA herbicidal damage score" test_result=5
compound="CC(=O)OC1C(C)=C(Cl)C(=O)N1c1cc(C(F)(F)F)ccn1 (stereo not drawn)" assay_target="Setaria faberi" measurement_kind="SETFA herbicidal damage score" test_result=5
compound="COc1ccc(N2C(=O)C(Cl)=C(C)C2O)nn1 (stereo not drawn)" assay_target="Setaria faberi" measurement_kind="SETFA herbicidal damage score" test_result=5
compound="CC1=C(Cl)C(=O)N(c2cc(C(F)F)ccn2)C1O (stereo not drawn)" assay_target="Setaria faberi" measurement_kind="SETFA herbicidal damage score" test_result=5
compound="CCC1=C(Cl)C(=O)N(c2cc(C(C)(C)C#N)ncn2)C1O (stereo not drawn)" assay_target="Setaria faberi" measurement_kind="SETFA herbicidal damage score" test_result=5
compound="CCC(=O)OC1C(C)=C(Cl)C(=O)N1c1cc(C(F)(F)F)c(-c2cccc(C#N)c2)cn1 (stereo not drawn)" assay_target="Setaria faberi" measurement_kind="SETFA herbicidal damage score" test_result=3
compound="COC1=C(C)C(O)N(c2cc(C)c(Cl)nn2)C1=O (stereo not drawn)" assay_target="Setaria faberi" measurement_kind="SETFA herbicidal damage score" test_result=4
compound="COC1=C(OC)C(O)N(c2cc(C(F)(F)F)ccn2)C1=O (stereo not drawn)" assay_target="Setaria faberi" measurement_kind="SETFA herbicidal damage score" test_result=5
compound="CC1=C(Cl)C(=O)N(c2cc(C3(C#N)CC3)ncn2)C1O (stereo not drawn)" assay_target="Setaria faberi" measurement_kind="SETFA herbicidal damage score" test_result=5
compound="CC1=C(Br)C(=O)N(c2cc(C(F)(F)F)ncn2)C1O (stereo not drawn)" assay_target="Setaria faberi" measurement_kind="SETFA herbicidal damage score" test_result=5
compound="CC1=C(Cl)C(=O)N(c2cc(C(C)F)ccn2)C1O (stereo not drawn)" assay_target="Setaria faberi" measurement_kind="SETFA herbicidal damage score" test_result=4
compound="CC1=C(Cl)C(=O)N(c2cc(N(C)C)ncn2)C1O (stereo not drawn)" assay_target="Setaria faberi" measurement_kind="SETFA herbicidal damage score" test_result=5
